# TESTED_TARGET: menin (Homo sapiens, UniProt O00255, T541A)
# Construct: Menin (a.a. 1-610-6×his tag)
# Sequence (O00255 with tags, fused parts or gaps T541A): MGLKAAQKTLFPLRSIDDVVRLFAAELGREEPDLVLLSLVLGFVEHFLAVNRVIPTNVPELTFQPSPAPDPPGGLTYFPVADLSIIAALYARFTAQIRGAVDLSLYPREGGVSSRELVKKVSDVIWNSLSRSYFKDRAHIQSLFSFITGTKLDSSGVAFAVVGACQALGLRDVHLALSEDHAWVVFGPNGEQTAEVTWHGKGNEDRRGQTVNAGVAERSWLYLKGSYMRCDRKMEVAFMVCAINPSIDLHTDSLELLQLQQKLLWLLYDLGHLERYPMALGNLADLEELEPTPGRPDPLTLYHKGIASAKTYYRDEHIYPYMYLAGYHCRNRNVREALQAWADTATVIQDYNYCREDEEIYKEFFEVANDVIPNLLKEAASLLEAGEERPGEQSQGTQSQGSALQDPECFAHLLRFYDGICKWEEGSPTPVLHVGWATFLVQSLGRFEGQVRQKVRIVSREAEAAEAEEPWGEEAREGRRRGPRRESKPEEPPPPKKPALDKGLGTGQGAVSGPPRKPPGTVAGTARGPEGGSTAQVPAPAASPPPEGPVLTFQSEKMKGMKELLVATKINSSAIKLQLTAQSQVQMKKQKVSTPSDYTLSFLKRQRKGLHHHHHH
# ASSAY_INFO: Menin/MLL homogenous time-resolved fluorescence (HTRF) assay
# Assay type: binding
# CONDITION_SUMMARY: location 1; read-out: (2) location 1 Menin HTRF assay (IC50 (nM))
PROPERTY_LABEL: IC50 (nM)

{"COMPOUND": "O=c1[nH]c2ccc(CNC3CCC4(C3)CN(c3ncnc5sc(CC(F)(F)F)cc35)C4)cc2[nH]1 (stereo not shown)", "TESTED_TARGET": "menin (Homo sapiens, UniProt O00255, T541A)", "UNITS_TEXT": "nM", "IC50": 5.9}
{"COMPOUND": "CC(C)(C#N)c1cccc(C(=O)NC2CCC3(C2)CN(c2ncnc4sc(CC(F)(F)F)cc24)C3)c1 (stereo not shown)", "TESTED_TARGET": "menin (Homo sapiens, UniProt O00255, T541A)", "UNITS_TEXT": "nM", "IC50": 3630}
{"COMPOUND": "FC(F)(F)Cc1cc2c(N3CCC4(CCC(NCc5ccccc5)C4)C3)ncnc2s1 (single isomer, unassigned) [Compound 6]", "TESTED_TARGET": "menin (Homo sapiens, UniProt O00255, T541A)", "UNITS_TEXT": "nM", "IC50": 472}
{"COMPOUND": "N#CCc1ccc(C(=O)NC2CC3(CCN(c4ncnc5sc(CC(F)(F)F)cc45)C3)C2)cc1 (mixture of isomers)", "TESTED_TARGET": "menin (Homo sapiens, UniProt O00255, T541A)", "UNITS_TEXT": "nM", "IC50": 843}

[I] FC(F)(F)Cc1cc2c(N3CCC4(CCC(NCc5ccccc5)C4)C3)ncnc2s1 (single isomer, unassigned) [Compound 4]
[II] N#CCc1cccc(C(=O)NC2CC3(CCN(c4ncnc5sc(CC(F)(F)F)cc45)C3)C2)c1 (stereo not shown)
// which entry has the larger IC50 value, I or II ? Please respond with the label that marks your chosen entry.
II
(II: 1250 nM, I: 188 nM)
